System: MDA-MB-231
protocol: NCI tumour cell line growth inhibition, 48 h
The source made the active and inactive calls. Rule as the data show it: active = GI50 up to about 1.1 µM and inactive = higher.
observed-property: GI50

COc1ccc2ccc3oc(=O)c(C)cc3c2c1 : 33.9 µM (inactive)
CC(C)OC(=O)NNc1cc(Cl)ccc1Cl : > 100 µM (inactive)
NC(CC(=O)O)(Cc1ccccc1)C(=O)O (stereo unspecified) : > 100 µM (inactive)
O=C(O)c1cccc(F)c1C(=O)c1ccc2ccccc2c1 : > 100 µM (inactive)
C=C1C(=O)O[C@@H]2C[C@@]3(C)CCC[C@H](C)C3=C[C@H]12 : 14.2 µM (inactive)

For COc1ccc(NCc2cccc3c(=O)c4ccc(Cl)cc4oc23)cc1 , what is its reported GI50?
> 100 µM (inactive)

# get_value(readout='GI50', item= CC(C)C(/C=C/c1ccc(Cl)cc1)=N\NC(=O)N/N=C(/C=C/c1ccc(Cl)cc1)C(C)C )
22.3 µM (inactive)

What does the record list as GI50 for CCOc1cc(-c2nc3ccccn3c2/N=C/c2cc(Br)ccc2O)ccc1O ?
30.5 µM (inactive)

# GI50 lookup, item COc1ccccc1N1C(=O)CSC1c1cc(OC)c(OC)c(OC)c1 (stereo unspecified)
> 100 µM (inactive)

Which measured GI50 value corresponds to CN(N=O)C(=N)NC(=O)c1ccccc1 ?
> 100 µM (inactive)

What value of GI50 has been reported for the following compound? COc1ccc(C2(c3ccc(OC)cc3)OC(=O)c3cccc4cccc2c34)cc1
> 100 µM (inactive)

----------
Entries and their GI50 values follow.
System: UACC-62
protocol: NCI tumour cell line growth inhibition, 48 h
Calls of active or inactive are those of the source. No stated cut-off is given here; in the data, active = GI50 up to about 1.1 µM and inactive = higher.

COc1ccc(-c2cc(-c3cc(C)cc(Br)c3O)no2)cc1 : 6.47 µM (inactive)
Cc1cc(C)c2c(c1)CC1(Cc3c(C)cc(C)cc3C1=O)C2=O (configuration not stated) : > 100 µM (inactive)
CC(C)(C)c1cc(C(=O)/C=C/c2ccc3c(c2)CCO3)cc(C(C)(C)C)c1O : 1.16 µM (inactive)

Lab note: need GI50 with UACC-62 for entry Cc1cn([C@@H]2C[C@@H]2CO)c(=O)[nH]c1=O , please look it up.
> 100 µM (inactive)

What measured GI50 is associated with O=C(NNc1nc(-c2ccccc2)cs1)Nc1ccccc1 on UACC-62?
19.4 µM (inactive)

Request: GI50, test system UACC-62, entry CC(=O)OI1NC(=O)c2ccccc21
> 100 µM (inactive)

Find the measured GI50: item CCOC(=O)c1sc2c(c1OC(=O)c1ccc(Cl)cc1Cl)c(=O)n(-c1ccccc1)c(=S)n2-c1ccccc1 , target or system UACC-62.
20 µM (inactive)

Look up GI50 with UACC-62 for this molecule: C[N+](C)(C)CC1CCCC1=O (configuration not stated)
1.6 µM (inactive)

Kindly state the measured GI50 obtained for CCOc1ccc(/C=C/C(=O)c2sc(NNC(C)=O)nc2C)cc1 with UACC-62.
> 100 µM (inactive)

----------
System: NCI-H460
protocol: NCI tumour cell line growth inhibition, 48 h
Activity calls are given as the source filed them. No stated cut-off is given here; in the data, active = GI50 up to about 1.1 µM and inactive = higher.
Classes to choose from: active, inactive

Solved cases below.
O=c1cc[nH]c(=O)[nH]1 : inactive
O=C(Nc1ccc(F)cc1)c1cc2ccc(O)cc2o/c1=N\c1cccc(F)c1 : inactive
COc1nc2nccc-2c2occn12 : inactive
Nc1nc(O)c2c(n1)NCN(CCCN1CCOCC1)C2 : inactive
COc1ccccc1N1C(=O)CSC1c1cc(OC)c(OC)c(OC)c1 (stereo unspecified) : inactive

So what was the verdict on Cc1c2ccncc2c(C)c2c1[nH]c1ccc(Oc3ccccc3)cc12 in this test?
inactive

How did this test come out for CC1=CC(=O)/C(=C/n2c(=S)[nH]c3cc(C)ccc32)C(=O)O1 ?
inactive

// outcome(item) with item = CCCCCCCCCCCCCCCC(=O)OCC(O)C1OC(=O)C(O)=C1O (stereo unspecified)
inactive

Called result for COc1cc2c(cc1OC)C1C=NC(C2)c2cc(OC)c(OC)cc21 (stereo unspecified)
inactive

Which outcome was assigned to CCN(CC)c1ccc2cc(-c3nnc(-c4ccccc4O)o3)c(=O)oc2c1 in this test?
inactive

Call for entry COc1ccc(OC)c(NC(=O)C2=C(C)NC(C)=C(C(=O)Nc3cc(OC)ccc3OC)C2c2ccco2)c1 :
inactive

Hi, sorry to bother you, what did the test record for O=C1C2C(c3ccccc3)NC(c3ccccc3)C1C(c1ccccc1)NC2c1ccccc1 (stereo unspecified) ?
inactive

----------
Test system: SNB-19
protocol: NCI tumour cell line growth inhibition, 48 h
Activity calls are given as the source filed them. No stated cut-off is given here; in the data, active = GI50 up to about 1.1 µM and inactive = higher.
Lab note: assign the record to one of 1 for active, 0 for inactive

Some solved entries appear below for comparison.
CC(C)(C)c1cc(C(=O)/C=C/c2ccc3c(c2)CCO3)cc(C(C)(C)C)c1O : 0
CC1CN=C(N(C)C(=O)Nc2ccc(Cl)c(Cl)c2)S1 (stereo not given) : 0
CCOC(=O)[C@H]1Nc2ccc(Cl)cc2[C@H]2CCC[C@@H]12 : 0
Cc1c(/C=N/NC(=O)c2cc(Br)cc(Br)c2O)c(=O)n(-c2ccccc2)n1C : 0

Lab note: next molecule to report on.
# fetch the recorded call for O=c1cc(-c2ccccc2)[nH]c2ccc(N3CCCC3)cc12 here
1

----------
Tested on: EKVX
protocol: NCI tumour cell line growth inhibition, 48 h
Active and inactive are the calls of the source. Cut-off read from the data, not from the text of the source: active = GI50 up to about 1.1 µM and inactive = higher.
Returns: one label drawn from active, inactive

Here are 4 molecules together with their reported answers.
O=C1C2=Cc3ccccc3CCN2c2ccc([N+](=O)[O-])cc21 : inactive
C[C@]12CC[C@H](O)CC1=CC[C@@H]1C2CC[C@]2(C)C(=O)N(N)C(=O)CC12 (stereo partly specified) : inactive
COC(=O)c1c(-c2ccccc2)sc(-c2cccc3ccccc23)c1C(=O)OC : inactive
Cc1ccc2nc3c(C(=O)NCCN(C)C)cccc3cc2c1 : active

Tell me the assay call for Cc1ccc2c(O)cc(-c3cccc(Cl)c3)nc2n1 please.
inactive

Recorded test outcome, item Cc1c2cc[n+](C)cc2c(C)c2c1[nH]c1ccc(Oc3ccccc3)cc12
inactive

Test call, this molecule: CC1CN=C(N(C)C(=O)Nc2ccc(Cl)c(Cl)c2)S1 (stereo unspecified)
inactive

Recorded call for C=CCN1C(=O)CS/C1=N\NC(=O)CSc1nc2ccccc2c(=O)n1CC ?
inactive

How did this test come out for NCCN1C(=O)CN=C(c2ccc(Cl)cc2)c2cc(Cl)ccc21 ?
inactive

Test call, this molecule: O=C1CCC(=O)C12CCc1cccc(O)c12
inactive

Given CCN1CCN(c2nc3ccc([N+](=O)[O-])cc3nc2C(=O)c2ccccc2)CC1 , state the outcome it received in this test.
inactive

----------
Test system: SF-268
protocol: NCI tumour cell line growth inhibition, 48 h
Calls of active or inactive are those of the source. Rule as the data show it: active = GI50 up to about 1.1 µM and inactive = higher.
Measured GI50 accompanies every entry in the list below.

C=CCN1C(=O)CS/C1=N\NC(=O)CSc1nc2ccccc2c(=O)n1CC : > 100 µM (inactive)
O=C1/C(=C2/C(=O)N(c3ccccc3)c3ccccc32)Nc2ccccc21 : 36.4 µM (inactive)
O=c1ncc(F)cn1C1OC(CO)C(O)C1O (stereo unspecified) : > 23.9 µM (inactive)

Give the measured GI50 of O=C(O)C12CCC(CC1=O)C2 (stereo unspecified) .
> 100 µM (inactive)

# query: GI50 of entry O=C1CSC(c2ccc(Cl)cc2)N1c1ccc(-n2c(-c3ccccc3)nc3ccccc3c2=O)cc1 (stereo unspecified)
88.1 µM (inactive)

Name the recorded GI50 for CCOC(=O)c1sc2c(c1OC(=O)c1ccc(Cl)cc1Cl)c(=O)n(-c1ccccc1)c(=S)n2-c1ccccc1 .
8.02 µM (inactive)

Name the reported GI50 value associated with the compound Cc1cn([C@@H]2C[C@@H]2CO)c(=O)[nH]c1=O
> 100 µM (inactive)

Using the record for CCOC(=O)Cn1nc2ccc(Nc3nc4ccccc4nc3C(=O)OCC)cc2n1 , report its GI50.
47.4 µM (inactive)

GI50 for COc1cc(/C=C/C(=O)CC(=O)/C=C/c2cc(C)c(O)c(OC)c2)cc(C)c1O ?
> 100 µM (inactive)

Would you kindly share the measured GI50 for CC(C)OC(=O)NNc1cc(Cl)ccc1Cl ?
44.8 µM (inactive)

Sample CC(=O)OI1NC(=O)c2ccccc21 — what was its GI50?
> 100 µM (inactive)

----------
Test system: PC-3
protocol: NCI tumour cell line growth inhibition, 48 h
Calls of active or inactive are those of the source. No stated cut-off is given here; in the data, active = GI50 up to about 1.1 µM and inactive = higher.
observed-property: GI50

O=C(c1cc2ccccc2cc1O)N1CCCCC1 : 29.8 µM (inactive)

// next item, GI50 requested
Requested read-out GI50, target or system PC-3, entry O=C(O)COc1cc(-c2ccccc2)nc2ccc(F)cc12
> 100 µM (inactive)

----------
Tested on: KM12
protocol: NCI tumour cell line growth inhibition, 48 h
Calls of active or inactive are those of the source. Cut-off read from the data, not from the text of the source: active = GI50 up to about 1.1 µM and inactive = higher.
Attribute: GI50

# annotated cases, reported GI50 shown
CCCOP1(=O)C=CC(Cl)=C(C)C1 (stereo unspecified) : 20.8 µM (inactive)
O=C1CN(C(=O)C2CCCN2C(=O)C2CCCN2)C(=O)CN1 (stereo unspecified) : > 100 µM (inactive)
C=CC(C)(C)n1cc(C2=C(O)C(=O)C(c3cn(C(C)(C)C=C)c4ccccc34)=C(O)C2=O)c2ccccc21 : 3.37 µM (inactive)

Consider the molecule shown here: O=C(c1cccc2ccccc12)C1(Br)S(=O)(=O)OCCOS1(=O)=O What is its recorded GI50?
> 100 µM (inactive)

Sample Cc1c2ccncc2c(C)c2c1[nH]c1ccc(Oc3ccccc3)cc12 — what was its GI50?
2.6 µM (inactive)

Consider the molecule O=C(NC1(c2cc3ccccc3s2)CCCCC1)C1CCC1 and give its measured GI50.
> 100 µM (inactive)
